- TESTED_TARGET: mouse DLL3 on CHO-K1-mDLL3 cells (mouse) (UniProt O88516)
- Sequence (O88516 other isoform, or with tags, fused parts or gaps limits assumed): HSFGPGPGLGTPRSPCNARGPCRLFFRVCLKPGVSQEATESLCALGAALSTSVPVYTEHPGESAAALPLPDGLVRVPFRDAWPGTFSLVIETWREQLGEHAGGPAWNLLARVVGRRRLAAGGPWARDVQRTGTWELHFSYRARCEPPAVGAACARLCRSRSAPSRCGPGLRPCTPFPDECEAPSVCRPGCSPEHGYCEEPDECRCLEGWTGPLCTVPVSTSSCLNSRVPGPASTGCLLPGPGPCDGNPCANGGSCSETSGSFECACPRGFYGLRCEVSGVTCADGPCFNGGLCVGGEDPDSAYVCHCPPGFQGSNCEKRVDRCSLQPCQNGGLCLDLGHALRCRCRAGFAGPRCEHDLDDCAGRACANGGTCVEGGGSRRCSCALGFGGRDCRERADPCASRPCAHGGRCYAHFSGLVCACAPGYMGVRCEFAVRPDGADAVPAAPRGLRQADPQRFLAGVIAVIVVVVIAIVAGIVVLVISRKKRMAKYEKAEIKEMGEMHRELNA
- TEST_METHOD_NOTES: FACS, CHO-K1-mDLL3 cells, 0.16 nM antibody
RECORDED_METRIC: MFI (MFI)
All answers are understood in MFI, so give the number only.

Previously resolved entries follow.
{"columns": ["BINDER", "ENDPOINT_VALUE"],
 "data": [
  ["Hab013VL2VH2a-hFc (scFv, part only; not given: scFv linker and human IgG1 Fc, V domains shown, not shown: another chain or arm of the molecule; a dimerising Fc or GST; small tags and cut ends) VL: EIVLTQSPATLSLSPGERATLSCRASKSVSTSGFSYMHWYQQKPGQPPRLLIYLASNLESGIPARFSGSGSGTDFTLTISSLEPEDFAVYYCQHSRELPFTFGQGTKLEIK VH: EVQLVQSGAEVKKPGSSVKVSCKASGYAFSNYWINWVRQAPGQGLEWMGQINPGDGDTIYNSKFKGRVTITADKSTSTAYMELSSLRSEDTAVYYCEREGRNYGDFAYWGQGTTVTVSS", 313],
  ["Hab015VL4VH1b-hFc (scFv, part only; not given: VL-VH linker and human IgG1 Fc, V domains shown, not shown: another chain or arm of the molecule; a dimerising Fc or GST; small tags and cut ends) VL: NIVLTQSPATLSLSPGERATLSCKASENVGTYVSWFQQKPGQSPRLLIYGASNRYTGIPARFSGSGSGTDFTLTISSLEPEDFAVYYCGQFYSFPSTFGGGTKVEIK VH: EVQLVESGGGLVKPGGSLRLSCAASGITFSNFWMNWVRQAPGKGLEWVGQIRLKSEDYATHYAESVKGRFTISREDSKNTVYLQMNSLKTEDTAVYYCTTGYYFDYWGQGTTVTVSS", 350]
]}

Please find the next binder below.
# return recorded MFI for input Hab009VL2aVH1-hFc (scFv, part only; not given: VL-VH linker and human IgG1 Fc, V domains shown, not shown: another chain or arm of the molecule; a dimerising Fc or GST; small tags and cut ends) VL: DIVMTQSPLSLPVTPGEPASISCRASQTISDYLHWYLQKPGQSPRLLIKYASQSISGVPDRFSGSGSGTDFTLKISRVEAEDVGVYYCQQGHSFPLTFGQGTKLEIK VH: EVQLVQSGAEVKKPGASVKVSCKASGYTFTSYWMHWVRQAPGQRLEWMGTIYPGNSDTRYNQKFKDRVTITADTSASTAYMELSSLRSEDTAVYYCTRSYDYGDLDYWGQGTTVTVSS
300
